Some sequences, each annotated with its measured PBM E-score.
- TESTED_ON: Cad1 (UniProt P24813)
- Sequence: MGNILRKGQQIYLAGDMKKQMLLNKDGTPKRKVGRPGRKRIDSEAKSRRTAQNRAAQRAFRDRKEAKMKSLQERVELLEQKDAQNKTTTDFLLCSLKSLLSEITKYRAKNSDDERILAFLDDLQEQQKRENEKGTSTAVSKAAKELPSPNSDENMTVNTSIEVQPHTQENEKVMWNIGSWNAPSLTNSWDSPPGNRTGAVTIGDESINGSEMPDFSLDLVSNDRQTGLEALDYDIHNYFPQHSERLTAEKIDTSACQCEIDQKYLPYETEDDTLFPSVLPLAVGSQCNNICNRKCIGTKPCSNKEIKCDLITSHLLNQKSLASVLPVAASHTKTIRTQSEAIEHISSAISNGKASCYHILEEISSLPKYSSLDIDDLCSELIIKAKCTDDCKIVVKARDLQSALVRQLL
- TEST_SUMMARY: PBM E-score (8-mer binding enrichment) (E-score (-0.5 to 0.5)); higher = stronger / more preferred TF binding
- RUN_PARAMETERS: protein concentration: 100 nM; construct: GST-full length
The full ranking holds about 33,000 sequences; the median of “E-score (-0.5 to 0.5)” is about -0.0014, and the highest 2% start at about 0.25. This is one part of a sample in which the highest values are shown more often than they occur.
ASSAY_ENDPOINT: PBM E-score

AACGGAAT : 0.269
CAGGTGCC : -0.0801
AAAATAAT : 0.314
AAGACCTT : -0.0766
AATTCGGC : -0.0493
ATTTTATG : 0.255
AACGGATC : 0.217
AACGGAAA : 0.219
CTAACCTA : -0.129
GATTAAAC : 0.0432
GATTAACC : 0.02
AATTTGTA : 0.196
AATTCGTC : 0.274
AATTCGTA : 0.0688
AACGGATA : 0.252
AAAATAAC : -0.0367
CATCTCCA : 0.09
